Task for the reader: assign each of the following variants its reported self-cleavage kobs at 10000 uM GlcN6P.
B1: glmS ribozyme (parent)
chain: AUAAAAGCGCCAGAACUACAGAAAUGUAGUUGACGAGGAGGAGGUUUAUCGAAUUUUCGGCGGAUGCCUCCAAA

Variants of: B1
Experimental Protocol: self-cleavage kobs at 10000 uM GlcN6P; higher = faster cleavage; RNA array
Settings: with glucosamine-6-phosphate
Fewer inactive variants are shown than the library holds.
Express it in s⁻¹; write the number only.

Inquiry: Would you mind telling me what self-cleavage kobs at 10000 uM GlcN6P value was observed for A14G U49A ?
Reply text: 3.67e-05

Inquiry: Requested field: self-cleavage kobs at 10000 uM GlcN6P. Item: U47C A53U
Reply text: 0.00124

Inquiry: Please give the measured self-cleavage kobs at 10000 uM GlcN6P for this variant: C11A A15C
Reply text: 5.67e-05

Inquiry: Quick one: self-cleavage kobs at 10000 uM GlcN6P for A14G G44A ?
Reply text: 0.00102

Inquiry: Requested read-out: self-cleavage kobs at 10000 uM GlcN6P. Entry: A12C C16U
Reply text: 0.016

Inquiry: Endpoint output: self-cleavage kobs at 10000 uM GlcN6P of G29U G32A U65G G66A . Value?
Reply text: 4.66e-05

Inquiry: Reported self-cleavage kobs at 10000 uM GlcN6P for A15G G44U : what is it?
Reply text: 0.0004

Inquiry: Looking for the measured self-cleavage kobs at 10000 uM GlcN6P of G13A A39G C67U , can you help?
Reply text: 0.000112

Inquiry: Could you tell me which self-cleavage kobs at 10000 uM GlcN6P is on file for G13C G29U G32A U54G U65C C68G U69G ?
Reply text: 0.000151

Inquiry: State the recorded self-cleavage kobs at 10000 uM GlcN6P for this entry: U47C U65A
Reply text: 0.00092

Inquiry: Would you kindly share the measured self-cleavage kobs at 10000 uM GlcN6P for A15U A39G ?
Reply text: 0.00943

Inquiry: Can you share its self-cleavage kobs at 10000 uM GlcN6P? I mean this variant: A39U U54C
Reply text: 0.0285

Inquiry: Quick one: self-cleavage kobs at 10000 uM GlcN6P for "U57C" ?
Reply text: 0.000236

Inquiry: Data request, read-out self-cleavage kobs at 10000 uM GlcN6P, for A14G A15G
Reply text: 0.109

Inquiry: Bench note: what self-cleavage kobs at 10000 uM GlcN6P did C11U C70G show?
Reply text: 6.56e-05

Inquiry: Need self-cleavage kobs at 10000 uM GlcN6P, item G29C G37A
Reply text: 0.000165

Inquiry: // returns reported self-cleavage kobs at 10000 uM GlcN6P for input C11G G40A A42G C58U C67G C68A
Reply text: 0.000191

Inquiry: I am curious: what self-cleavage kobs at 10000 uM GlcN6P value has been reported for G32A U56G ?
Reply text: 0.000906

Inquiry: // query self-cleavage kobs at 10000 uM GlcN6P value for entry G13A A53U C58A
Reply text: 0.000332

Inquiry: Would you mind telling me what self-cleavage kobs at 10000 uM GlcN6P value was observed for A12C G29A ?
Reply text: 0.00557
